Target: T1, recombinant monomeric human TIGIT-His (human, UniProt Q495A1 22-141)
T1 construct: also called hTIGIT; not shown: His tag
T1 sequence: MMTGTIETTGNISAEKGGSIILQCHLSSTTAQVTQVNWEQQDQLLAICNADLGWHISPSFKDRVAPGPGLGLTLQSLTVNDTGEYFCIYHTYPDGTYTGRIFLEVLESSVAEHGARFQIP
Assay: BLI (Octet QKe), antibody on AHC sensor, several concentrations of human TIGIT-His, 1:1 global fit, average
endpoint-name: pKd
pKd (log units): -log10 of the concentration in mol/L.

| binder | pKd |
| --- | --- |
| MAB18-IgG4 (antibody, V domains shown) VH: QVQLVQSGAEVKKPGASVKVSCKASGYTFPAYYMHWVRQAPGQGLEWMGIINPSLGLTSYARKFQGRVTMTRDTSTSTVYMELSSLRSEDTAVYYCARGGRTTWIGAFDIWGQGTMVTVSS VL: EIVMTQSPATLSVSPGERATLSCRASQSVSSNLAWYQQKPGQAPRLLIYGASTRATGIPARFSGSGSGTEFTLTISSLQSEDFAVYYCQQYVVWPPLTFGGGTKVEIKR | 9.09 |

Prompt: Fill blank: measured pKd of the binder MAB15-IgG4 (antibody, V domains shown) VH: QVQLVQSGAEVKKPGASVKVSCKASGYTFREYYMHWVRQAPGQGLEWMGIINPSIGLTSYARKFQGRVTMTRDTSTSTVYMELSSLRSEDTAVYYCARGGRTTWIGAFDIWGQGTMVTVSS VL: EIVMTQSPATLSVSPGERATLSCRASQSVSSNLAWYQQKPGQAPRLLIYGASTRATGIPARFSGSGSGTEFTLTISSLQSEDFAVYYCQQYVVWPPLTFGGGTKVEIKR is ____.
Response: 9.24

Prompt: // repeat for MAB4-IgG4 (antibody, V domains shown) VH: QLQLQESGPGLVKPSETLSLTCTVSGGSISSTSHYWGWIRQPPGKGLEWIGSIYYSGSTFYNPSLKSRVTISVDTSKNQFSLKLSSVTAADTAVYYCARDANYYGGAWAFDPWGQGTLVTVSS VL: EIVLTQSPATLSLSPGERATLSCRASQSVSSYLAWYQQKPGQAPRLLIYDASNRATGIPARFSGSGSGTDFTLTISSLEPEDFAVYYCQQHFNLPTFGGGTKVEIKR and report
Response: 10.09
